test: Volume of distribution at steady state in C57Bl/6 mouse at 2 mg/kg, iv and 9 mg/kg, po; format: ADME, organism-based; conditions: in vivo, read-out: Vdss
// reported Vd per item
Please give a number only; it is taken to be in L/kg.

These solved cases illustrate the format of a correct answer.
[
  {
    "chemical_smiles": "CC(=O)N1C[C@H](S(=O)(=O)c2ccccc2Cl)C[C@H]1C(=O)NC1(C#N)CC1",
    "Vd (L/kg)": 0.5
  },
  {
    "chemical_smiles": "N#CCNC(=O)[C@@H]1C[C@@H](S(=O)(=O)c2ccccc2)C[C@H]1C(=O)N1CCOCC1",
    "Vd (L/kg)": 0.5
  }
]

Next:
Request: Item `N#CC1(NC(=O)[C@@H]2C[C@@H](S(=O)(=O)c3ccccc3C(F)(F)F)CN2)CC1` has what recorded Vd?
Result: 0.13

The measurements presented in this section are drawn from ChEMBL document CHEMBL3091448.
